Test system: T1, human chemokine (C-C motif) receptor 8 (CCR8) (human, UniProt P51685 1-355)
T1 construct: also called hCCR8
T1 sequence (P51685 whole entry): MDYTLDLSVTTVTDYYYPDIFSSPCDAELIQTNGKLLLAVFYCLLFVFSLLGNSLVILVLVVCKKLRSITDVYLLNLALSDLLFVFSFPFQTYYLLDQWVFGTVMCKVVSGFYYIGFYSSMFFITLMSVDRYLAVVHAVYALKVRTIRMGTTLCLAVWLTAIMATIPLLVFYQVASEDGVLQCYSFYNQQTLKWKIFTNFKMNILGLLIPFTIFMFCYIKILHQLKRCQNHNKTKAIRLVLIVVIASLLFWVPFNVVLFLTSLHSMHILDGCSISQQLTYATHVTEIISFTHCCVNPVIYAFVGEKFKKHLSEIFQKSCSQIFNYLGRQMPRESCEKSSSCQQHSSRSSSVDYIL
Experiment notes: flow cytometry blocking, human PBMC, CD3+ gate; % cells stained by competitor PE-AB5 after block
Experimental: For blocking studies, 100 μL of the cell suspension were incubated with 10 μg purified isotype control, AB1, AB2, AB3, AB4, AB5, AB8, AB9, AB10, AB11, AB12, AB13, AB14, AB15, and Commercial ABI antibodies, or isotype control, as blocking agents. […]
In this section, each of the binders is paired with its reported % Positive cells.
Metric: % Positive cells (%)

• anti-CCR8 monoclonal antibody AB13 (antibody, V domains shown, Hybridoma monoclonal; also called antibody 13; clone 13) VH: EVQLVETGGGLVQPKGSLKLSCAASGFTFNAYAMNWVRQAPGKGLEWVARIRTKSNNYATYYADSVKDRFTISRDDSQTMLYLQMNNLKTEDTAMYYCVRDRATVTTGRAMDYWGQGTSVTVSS VL: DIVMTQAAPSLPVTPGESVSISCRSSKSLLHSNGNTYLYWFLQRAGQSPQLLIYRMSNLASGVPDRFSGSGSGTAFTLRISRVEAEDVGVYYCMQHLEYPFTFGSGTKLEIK = 8.39
• anti-CCR8 monoclonal antibody AB11 (antibody, V domains shown, Hybridoma monoclonal; also called antibody 11; clone 11) VH: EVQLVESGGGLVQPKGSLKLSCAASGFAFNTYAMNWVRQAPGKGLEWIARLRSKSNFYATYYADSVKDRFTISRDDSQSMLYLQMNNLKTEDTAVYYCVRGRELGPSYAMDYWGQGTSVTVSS VL: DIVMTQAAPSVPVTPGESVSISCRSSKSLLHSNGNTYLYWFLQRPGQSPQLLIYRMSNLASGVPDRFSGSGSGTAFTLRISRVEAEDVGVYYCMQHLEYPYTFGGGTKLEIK = 8.49
• anti-CCR8 monoclonal antibody AB7 (antibody, V domains shown, Hybridoma monoclonal; also called antibody 7; clone 7) VH: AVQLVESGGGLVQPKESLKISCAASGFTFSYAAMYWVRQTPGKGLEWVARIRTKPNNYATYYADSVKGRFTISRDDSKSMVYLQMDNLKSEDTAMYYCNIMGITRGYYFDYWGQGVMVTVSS VL: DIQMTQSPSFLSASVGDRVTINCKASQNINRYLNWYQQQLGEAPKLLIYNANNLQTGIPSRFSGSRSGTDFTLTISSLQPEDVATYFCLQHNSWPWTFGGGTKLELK = 8.68
• anti-CCR8 monoclonal antibody AB5 (antibody, V domains shown, Hybridoma monoclonal; also called antibody 5; clone 5) VH: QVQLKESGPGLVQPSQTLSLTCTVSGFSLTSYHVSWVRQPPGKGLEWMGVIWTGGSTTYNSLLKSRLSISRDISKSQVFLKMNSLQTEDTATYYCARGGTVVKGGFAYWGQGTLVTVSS VL: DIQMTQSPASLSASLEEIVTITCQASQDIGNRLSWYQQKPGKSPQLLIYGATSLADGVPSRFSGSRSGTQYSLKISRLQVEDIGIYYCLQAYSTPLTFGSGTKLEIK = 1.25
• anti-CCR8 monoclonal antibody AB6 (antibody, V domains shown, also called antibody 6; clone 6) VH: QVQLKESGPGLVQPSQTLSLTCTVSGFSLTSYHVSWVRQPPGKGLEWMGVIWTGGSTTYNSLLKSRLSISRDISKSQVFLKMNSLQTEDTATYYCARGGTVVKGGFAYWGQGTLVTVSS VL: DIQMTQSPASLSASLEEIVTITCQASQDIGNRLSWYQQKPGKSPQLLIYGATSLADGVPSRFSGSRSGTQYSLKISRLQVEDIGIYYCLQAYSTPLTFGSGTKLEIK = 7.69
• anti-CCR8 monoclonal antibody AB10 (antibody, V domains shown, Hybridoma monoclonal; also called antibody 10; clone 10) VH: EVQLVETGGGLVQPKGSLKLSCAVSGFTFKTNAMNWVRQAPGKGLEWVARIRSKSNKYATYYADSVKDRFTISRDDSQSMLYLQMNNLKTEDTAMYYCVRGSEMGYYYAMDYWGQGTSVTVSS VL: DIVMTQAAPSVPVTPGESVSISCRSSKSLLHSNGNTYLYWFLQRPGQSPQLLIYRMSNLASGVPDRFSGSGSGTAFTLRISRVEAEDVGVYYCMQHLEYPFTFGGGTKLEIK = 8.75
• anti-CCR8 monoclonal antibody AB8 (antibody, V domains shown, Hybridoma monoclonal; also called antibody 8; clone 8) VH: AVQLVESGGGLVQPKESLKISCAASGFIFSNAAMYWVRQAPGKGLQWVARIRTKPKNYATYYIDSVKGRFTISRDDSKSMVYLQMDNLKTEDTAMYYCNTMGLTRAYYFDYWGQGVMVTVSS VL: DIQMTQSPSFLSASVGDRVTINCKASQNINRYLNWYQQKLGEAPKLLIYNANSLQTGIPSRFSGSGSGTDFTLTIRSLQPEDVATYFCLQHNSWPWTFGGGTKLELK = 8.95

Hey, just so you know, these numbers are from patent US20240360228A1.
